System: 323965-272-R-J2-PDC complex spheroid growth, % test/control;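 note: compound exposure lasted 7 days starting three days after spheroid seeding; 100% = DMSO vehicle control wells with viability set relative to vehicle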
Experiment: Anticancer human tumor 323965-272-R-J2-PDC patient-derived pancreatic carcinoma cell line growth inhibition [Asc]
Conditions: second compound 0.00949 µM; first compound 1 µM; hits give low values
Text: Multicellular complex tumor spheroid response to apoptosis pathway targeting inhibitors Alrizomadlin, Pelcitoclax, and Dasminapant in combination with a variety of drugs and investigational agents in selected tumor cell lines […] Compounds. […] If the clinical Cmax for an agent had not been determined, the highest concentration tested was 10 microM. […]
Attribute: viability, T/C
OBSERVATION TYPE: viability, T/C (%)

COMPOUND	TEST TARGET	MEASURED
C=CC(=O)N1CCN(c2nc(=O)n(-c3c(C)ccnc3C(C)C)c3nc(-c4c(O)cccc4F)c(F)cc23)C(C)C1 (stereo not drawn) + CCN1C(C(=O)NC23CCC(C(=O)O)(CC2)CC3)C(c2cccc(Cl)c2F)C2(C(=O)Nc3cc(Cl)ccc32)C12CCCCC2	323965-272-R-J2-PDC complex spheroid growth, % test/control	64.8
C=C(F)C(=O)N1CCN(c2nc(OCC3CCCN3C)nc3c2CCN(c2cccc4cccc(Cl)c24)C3)CC1CC#N (stereo not drawn) + CCN1C(C(=O)NC23CCC(C(=O)O)(CC2)CC3)C(c2cccc(Cl)c2F)C2(C(=O)Nc3cc(Cl)ccc32)C12CCCCC2	323965-272-R-J2-PDC complex spheroid growth, % test/control	58.6
CCN1CCN(Cc2ccc(Nc3ncc(F)c(-c4cc(F)c5nc(C)n(C(C)C)c5c4)n3)nc2)CC1 + CCN1C(C(=O)NC23CCC(C(=O)O)(CC2)CC3)C(c2cccc(Cl)c2F)C2(C(=O)Nc3cc(Cl)ccc32)C12CCCCC2	323965-272-R-J2-PDC complex spheroid growth, % test/control	77
COc1c(OCCCN2CCOCC2)ccc2c3n(c(=NC(=O)c4cnc(N)nc4)nc12)CCN3 + CCN1C(C(=O)NC23CCC(C(=O)O)(CC2)CC3)C(c2cccc(Cl)c2F)C2(C(=O)Nc3cc(Cl)ccc32)C12CCCCC2	323965-272-R-J2-PDC complex spheroid growth, % test/control	25.7
CNC(C)C(=O)NC1CN(S(=O)(=O)c2cccc(S(=O)(=O)N3CCC4CCC(C(=O)NC(c5ccccc5)c5ccccc5)N4C(=O)C(NC(=O)C(C)NC)C3)c2)CCC2CCC(C(=O)NC(c3ccccc3)c3ccccc3)N2C1=O (stereo not drawn) + CCN1C(C(=O)NC23CCC(C(=O)O)(CC2)CC3)C(c2cccc(Cl)c2F)C2(C(=O)Nc3cc(Cl)ccc32)C12CCCCC2	323965-272-R-J2-PDC complex spheroid growth, % test/control	105
O=C(c1ccc(F)c(F)c1Nc1ccc(I)cc1F)N1CC(O)([C@@H]2CCCCN2)C1 + CCN1C(C(=O)NC23CCC(C(=O)O)(CC2)CC3)C(c2cccc(Cl)c2F)C2(C(=O)Nc3cc(Cl)ccc32)C12CCCCC2	323965-272-R-J2-PDC complex spheroid growth, % test/control	19.9
C#Cc1c(F)ccc2cc(O)cc(-c3ncc4c(N5CC6CCC(C5)N6)nc(OCC56CCCN5CC(F)C6)nc4c3F)c12 (stereo not drawn) + CCN1C(C(=O)NC23CCC(C(=O)O)(CC2)CC3)C(c2cccc(Cl)c2F)C2(C(=O)Nc3cc(Cl)ccc32)C12CCCCC2	323965-272-R-J2-PDC complex spheroid growth, % test/control	92.6
O=C(c1cc(Cc2n[nH]c(=O)c3ccccc23)ccc1F)N1CCN(C(=O)C2CC2)CC1 + CCN1C(C(=O)NC23CCC(C(=O)O)(CC2)CC3)C(c2cccc(Cl)c2F)C2(C(=O)Nc3cc(Cl)ccc32)C12CCCCC2	323965-272-R-J2-PDC complex spheroid growth, % test/control	110
